targetDesc: DR4Dw4 (DRA1*0101 DRB1*0401) (Homo sapiens, UniProt P01903+P01911, A100K/A169T/F76Y/I96L/K127E/L162R/M171V/N62H/P40V/Q125Y/R42H/S133A/S149N/S66Y/V115G/V209L/W38E)
protocol: Competitive binding to MHC-II protein DR4Dw4
Square brackets hold non-standard residues; d marks the D form. Peptide text beside a SMILES is read from it. * marks the point of attachment. Gly(1-amidinopiperidin-4-yl) = N=C(N)N1CCC([C@H](N)C(=O)O)CC1; Tic = O=C(O)[C@@H]1Cc2ccccc2CN1; Cha = N[C@@H](CC1CCCCC1)C(=O)O; NMe(benzyl) = CN(Cc1ccccc1)*; Nle = CCCC[C@H](N)C(=O)O; X5 = OCCN(Cc1ccccc1)*; X3 = OCCOCCN*
quantity: IC50 (µM)
Use µM as the unit, but write only the number.

Some compounds with recorded IC50:
>>> observedvalue("CCCC[C@H](NC(=O)[C@@H]1Cc2ccccc2CN1C(=O)[C@@H](NC(=O)[C@H](CC1CCCCC1)NC(C)=O)C1CCN(C(=N)N)CC1)C(=O)N(CCO)Cc1ccccc1 [Compound P78, Ac-Cha-Gpg-Tic-Nle-N(Bn)CH2CH2OH] (Ac-[Cha][Gly(1-amidinopiperidin-4-yl)][Tic][Nle]-X5)")
2.6
>>> observedvalue("CCCC[C@H](NC(=O)[C@@H]1Cc2ccccc2CN1C(=O)[C@@H](NC(=O)[C@H](CC1CCCCC1)NC(C)=O)C1CCN(C(=N)N)CC1)C(=O)NCCOCCO [Compound P70, Ac-Cha-Gpg-Tic-Nle-N(H)CH2CH2OCH2CH2OH] (Ac-[Cha][Gly(1-amidinopiperidin-4-yl)][Tic][Nle]-X3)")
0.44

Now for another entry.
### Prompt Consider the compound CCCC[C@H](NC(=O)[C@@H]1Cc2ccccc2CN1C(=O)[C@@H](NC(=O)[C@H](CC1CCCCC1)NC(C)=O)C1CCN(C(=N)N)CC1)C(=O)N(C)Cc1ccccc1 [Compound P74, Ac-Cha-Gpg-Tic-Nle-N(Me)Bn] (Ac-[Cha][Gly(1-amidinopiperidin-4-yl)][Tic][Nle]-{NMe(benzyl)}) and give its recorded IC50.
### Response 3.4

====

In this section we review reported IC50 values for a set of compounds.
targetDesc: LG2 (DR1: DRA1*0101 DRB1*0101) cells (Homo sapiens, UniProt P01903+P01911, A100R/D57E/F55L/F60I/F76Y/I96L/L162R/M171V/P40L/Q125E/R42F/V115G/Y59C)
Construct: MHC II Proteins Expressed on PRIESS and LG2 Cells; endogenous in cells; host or cells: LG2 cells
protocol: Competitive binding to MHC II proteins expressed on LG2 cells
Format: cell-based
setupConditions: Cell binding IC50 (uM) LG2 (0101), LG2 (0101)
Numbered stars: 1 amine (or outer) side, 2 acyl side, 3 side chain; on linkers, the order of the positions; unused ones are H or OH. Square brackets hold non-standard residues; d marks the D form. Peptide text beside a SMILES is read from it. ξ: configuration not given here. Gly(1-amidinopiperidin-4-yl) = N=C(N)N1CCC([C@H](N)C(=O)O)CC1; X1 = CC(C)c1oc([C@H](CO)N[*:1])nc1C(=O)[*:2]; Pro(3R-Ph) = O=C(O)[C@H]1NCC[C@@H]1c1ccccc1; Met(O) = CS(=O)CC[C@H](N)C(=O)O; Tic = O=C(O)[C@@H]1Cc2ccccc2CN1; Cha = N[C@@H](CC1CCCCC1)C(=O)O; ξDisc = O=C(O)C1NCc2ccccc21; Nle = CCCC[C@H](N)C(=O)O
Use µM as the unit, but write only the number.

>>> observedvalue("CC(=O)N[C@@H](CC1CCCCC1)C(=O)N[C@H](C(=O)N1Cc2ccccc2C[C@H]1C(=O)N[C@@H](CC[S+](C)[O-])C(=O)N1CC[C@H](c2ccccc2)[C@H]1C(=O)N[C@@H](CO)c1nc(C(=O)N(C)C)c(C(C)C)o1)C1CCN(C(=N)N)CC1 (stereo partly drawn) [Compound P47] (Ac-[Cha][Gly(1-amidinopiperidin-4-yl)][Tic][Met(O)][Pro(3R-Ph)][X1]-NMe2)")
4.6
>>> observedvalue("CCCC[C@H](NC(=O)C1c2ccccc2CN1C(=O)[C@@H](NC(=O)[C@H](CC1CCCCC1)NC(C)=O)C1CCN(C(=N)N)CC1)C(=O)N1CC[C@H](c2ccccc2)[C@H]1C(=O)N[C@@H](CO)c1nc(C(=O)N(C)C)c(C(C)C)o1 (stereo partly drawn) [Compound P81-1] (Ac-[Cha][Gly(1-amidinopiperidin-4-yl)][ξDisc][Nle][Pro(3R-Ph)][X1]-NMe2)")
5

Now for another entry.
### Prompt Consider the compound CSCC[C@H](NC(=O)C1c2ccccc2CN1C(=O)[C@H](CCCNC(=N)N)NC(=O)[C@H](CC1CCCCC1)NC(C)=O)C(=O)N1CC[C@H](c2ccccc2)[C@H]1C(=O)N[C@@H](CO)c1nc(C(=O)N(C)C)c(C(C)C)o1 (stereo partly drawn) [Compound P40-1] (Ac-[Cha]R[ξDisc]M[Pro(3R-Ph)][X1]-NMe2) and give its recorded IC50.
### Response 8
